FYI, the data here is from ChEMBL document CHEMBL1147863.

tested on: Fusarium oxysporum; experiment: Antifungal activity against Fusarium oxysporum at 2% (w/v) concentration by disc diffusion method; format: functional
Label YES when inhibition zone (IZ) is at or above 10 mm; anything below gets NO.

Reference set (5 entries):
>  <Given smiles>
Clc1c2c(nc3ccccc13)C=CNN=C2

>  <Qualitative label>
NO

$$$$
>  <Given smiles>
Cc1ccc2c(Cl)c(C=O)c(/C=C/O)nc2c1

>  <Qualitative label>
NO

$$$$
>  <Given smiles>
O=Cc1c(/C=C/O)nc2ccc(Cl)cc2c1Cl

>  <Qualitative label>
YES

$$$$
>  <Given smiles>
Cc1ccc(C)c2c(Cl)c3c(nc12)C=CNN=C3

>  <Qualitative label>
YES

$$$$
>  <Given smiles>
COC(=O)Nc1nc2ccccc2[nH]1

>  <Qualitative label>
YES

$$$$

Note: attention shifts to another entry.
INPUT: Determine whether measured inhibition zone (IZ) meets or exceeds 10 mm for `O=Cc1c(/C=C/O)nc2ccccc2c1Cl`
OUTPUT: NO

* * *

tested on: Fusarium oxysporum; experiment: Antifungal activity against Fusarium oxysporum at 0.5% (w/v) concentration by disc diffusion method; format: functional
Property label: inhibition zone (IZ) (mm)
Write the answer as a number in mm, unit excluded.

# count of solved cases: 5
>  <Given smiles>
Cc1ccc2c(Cl)c(C=O)c(/C=C/O)nc2c1

>  <inhibition zone (IZ) [mm]>
1

$$$$
>  <Given smiles>
COC(=O)Nc1nc2ccccc2[nH]1

>  <inhibition zone (IZ) [mm]>
6

$$$$
>  <Given smiles>
Cc1ccc2c(Cl)c3c(nc2c1)C=CNN=C3

>  <inhibition zone (IZ) [mm]>
3

$$$$
>  <Given smiles>
Cc1ccc(C)c2c(Cl)c3c(nc12)C=CNN=C3

>  <inhibition zone (IZ) [mm]>
4

$$$$
>  <Given smiles>
O=Cc1c(/C=C/O)nc2ccc(Cl)cc2c1Cl

>  <inhibition zone (IZ) [mm]>
2

$$$$

INPUT: # input molecule: `Cc1ccc(C)c2c(Cl)c(C=O)c(/C=C/O)nc12` ; wanted: its inhibition zone (IZ)
OUTPUT: 3

INPUT: # input molecule: `Cc1cccc2c(Cl)c3c(nc12)C=CNN=C3` ; wanted: its inhibition zone (IZ)
OUTPUT: 2

INPUT: # input molecule: `Clc1ccc2nc3c(c(Cl)c2c1)C=NNC=C3` ; wanted: its inhibition zone (IZ)
OUTPUT: 4

* * *

system: Fusarium oxysporum; test: Antifungal activity against Fusarium oxysporum at 1% (w/v) concentration by disc diffusion method; assay type: functional
Property label: inhibition zone (IZ) (mm)
Write the answer as a number in mm, unit excluded.

# count of solved cases: 9
>  <Given smiles>
Cc1cccc2c(Cl)c3c(nc12)C=CNN=C3

>  <Tested on>
Fusarium oxysporum

>  <inhibition zone (IZ) (mm)>
6

$$$$
>  <Given smiles>
Cc1ccc2c(Cl)c3c(nc2c1)C=CNN=C3

>  <Tested on>
Fusarium oxysporum

>  <inhibition zone (IZ) (mm)>
7

$$$$
>  <Given smiles>
Cc1cccc2c(Cl)c(C=O)c(/C=C/O)nc12

>  <Tested on>
Fusarium oxysporum

>  <inhibition zone (IZ) (mm)>
3

$$$$
>  <Given smiles>
COC(=O)Nc1nc2ccccc2[nH]1

>  <Tested on>
Fusarium oxysporum

>  <inhibition zone (IZ) (mm)>
11

$$$$
>  <Given smiles>
Cc1ccc(C)c2c(Cl)c3c(nc12)C=CNN=C3

>  <Tested on>
Fusarium oxysporum

>  <inhibition zone (IZ) (mm)>
11

$$$$
>  <Given smiles>
Cc1ccc2c(Cl)c(C=O)c(/C=C/O)nc2c1

>  <Tested on>
Fusarium oxysporum

>  <inhibition zone (IZ) (mm)>
4

$$$$
>  <Given smiles>
Clc1ccc2nc3c(c(Cl)c2c1)C=NNC=C3

>  <Tested on>
Fusarium oxysporum

>  <inhibition zone (IZ) (mm)>
8

$$$$
>  <Given smiles>
Cc1ccc(C)c2c(Cl)c(C=O)c(/C=C/O)nc12

>  <Tested on>
Fusarium oxysporum

>  <inhibition zone (IZ) (mm)>
7

$$$$
>  <Given smiles>
Clc1c2c(nc3ccccc13)C=CNN=C2

>  <Tested on>
Fusarium oxysporum

>  <inhibition zone (IZ) (mm)>
3

$$$$

Turning now to a further compound:
INPUT: # input compound: `O=Cc1c(/C=C/O)nc2ccc(Cl)cc2c1Cl` ; wanted: its inhibition zone (IZ)
OUTPUT: 5
